- experimental_target: RET (Homo sapiens (Human), UniProt P07949)
- Sequence (P07949 29-1114): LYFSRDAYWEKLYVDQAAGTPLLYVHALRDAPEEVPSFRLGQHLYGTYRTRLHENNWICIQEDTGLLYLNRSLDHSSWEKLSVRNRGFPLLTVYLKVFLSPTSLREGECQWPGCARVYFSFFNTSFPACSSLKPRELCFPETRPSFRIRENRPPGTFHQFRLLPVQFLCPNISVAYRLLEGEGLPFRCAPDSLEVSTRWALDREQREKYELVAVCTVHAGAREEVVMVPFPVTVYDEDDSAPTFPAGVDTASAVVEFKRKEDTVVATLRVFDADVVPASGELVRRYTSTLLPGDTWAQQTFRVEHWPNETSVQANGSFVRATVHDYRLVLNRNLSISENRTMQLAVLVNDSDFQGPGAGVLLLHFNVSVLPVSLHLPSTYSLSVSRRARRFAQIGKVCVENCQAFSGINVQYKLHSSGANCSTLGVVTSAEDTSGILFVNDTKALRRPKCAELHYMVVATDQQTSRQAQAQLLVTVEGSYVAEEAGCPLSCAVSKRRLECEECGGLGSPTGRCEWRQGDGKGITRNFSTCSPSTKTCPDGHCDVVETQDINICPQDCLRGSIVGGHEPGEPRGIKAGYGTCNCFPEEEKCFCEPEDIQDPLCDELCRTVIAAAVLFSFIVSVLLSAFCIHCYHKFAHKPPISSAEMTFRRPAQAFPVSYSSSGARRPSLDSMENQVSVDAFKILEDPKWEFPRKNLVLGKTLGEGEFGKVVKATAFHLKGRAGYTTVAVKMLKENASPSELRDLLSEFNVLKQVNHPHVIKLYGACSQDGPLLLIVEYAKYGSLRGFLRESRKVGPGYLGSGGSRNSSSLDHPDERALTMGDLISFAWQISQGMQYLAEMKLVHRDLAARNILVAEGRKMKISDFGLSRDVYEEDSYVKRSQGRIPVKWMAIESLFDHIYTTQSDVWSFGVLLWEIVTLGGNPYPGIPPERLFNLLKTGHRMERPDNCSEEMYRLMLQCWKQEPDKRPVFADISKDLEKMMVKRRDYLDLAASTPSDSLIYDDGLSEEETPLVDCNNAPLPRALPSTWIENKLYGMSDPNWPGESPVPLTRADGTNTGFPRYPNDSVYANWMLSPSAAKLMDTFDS
- assay_protocol: Protein based RET kinase assay with purified recombinant GST-RET
- Format: biochemical
- setup_conditions: purified protein assay; read-out: IC50
Where a name gives a salt, the structure may show the parent alone.
Below, each of the compounds is paired with its reported IC50 value.

CN(C)CCNC1c2ccccc2-c2ccccc21 [SW-09, dihydrochloride] :: > 20 µM
CN(C)CCC=C1c2ccccc2C(C)(C)c2ccccc21 [SW-14, Melitracin] :: > 20 µM
CN(C)CCCC1(O)c2ccccc2C=Cc2ccccc21 [SW-11] :: > 10 µM
CN(CCCN1c2ccccc2CCc2ccccc21)CC(=O)c1ccc(Cl)cc1 [SW-06, Lofepramine] :: > 20 µM

In the following, a different compound is considered.
Reported IC50 for NCCCC1(CCCN)c2ccccc2-c2ccccc21 [SW-10, 9,9-Bis(3-aminopropyl)-fluorine] : what is it? > 20 µM
